Tested on: Plasmodium falciparum
TEST_DETAILS: Antimalarial activity against drug-resistant Plasmodium falciparum Dd2 harboring V259L mutant infected in human erythrocytes after 72 hrs by SYBR green 1-based fluorescence assay
Assay type: functional, organism-based
PROTOCOL_CONDITIONS: Dd2, 72 h
QUANTITY_MEASURED: pIC50
# pIC50: negative log10 of molar concentration; output just the value

molecule="O[C@@H](c1cc(C(F)(F)F)nc2c(C(F)(F)F)cccc12)[C@H]1CCCCN1 [(S,R)-MEFLOQUINE]" reported_measurement=7.64
molecule="CCCCN(CCCC)CC(O)c1cc(Cl)cc2c1-c1ccc(Cl)cc1/C2=C/c1ccc(Cl)cc1 (centres undefined)" reported_measurement=8.19
molecule=CCCCN(CCCC)CCOc1ccc2c(=O)c3c(Cl)c(Cl)ccc3[nH]c2c1 reported_measurement=6.85
molecule=O=C1C(O)=C([C@H]2CC[C@H](c3ccc(Cl)cc3)CC2)C(=O)c2ccccc21 reported_measurement=8.39
molecule="CCN(CC)CCCC(C)Nc1ccnc2cc(Cl)ccc12 (centres undefined)" reported_measurement=6.59
molecule=CCCN(CCC)CCOc1ccc2c(=O)c3c(Cl)c(Cl)ccc3[nH]c2c1 reported_measurement=6.67

Lookup: Could you please provide reported pIC50 for `CCCN(CCC)CCOc1ccc2c(=O)c3c(F)cc(F)cc3[nH]c2c1` ? Thanks!
Found: 8.26

Lookup: Give pIC50 for the following molecule: `CCN(CC)CCOc1ccc2c(=O)c3c(Cl)cc(Cl)cc3[nH]c2c1`
Found: 6.18

Lookup: Item `Clc1ccc2c(N3CCN(CCCN4CCN(c5ccnc6cc(Cl)ccc56)CC4)CC3)ccnc2c1` : provide pIC50
Found: 8.15

###

TEST_DETAILS: AUC (0 to infinity) in ICR mouse liver at 80 mg/kg, po administered as single dose
Format: ADME, organism-based
Design: dose 80 mg/kg, route oral, time infinity
Each entry below carries its reported AUC(0-inf).
Number only, in µg·h/mL; omit the unit.

// known answers, use as guide
compound=CCCN(CCC)CCCOc1ccc2c(=O)c3c(F)cc(F)cc3[nH]c2c1 quantity_measured=AUC(0-inf) reported_measurement=237
compound=CCCN(CCC)CCOc1ccc2c(=O)c3c(Cl)c(Cl)ccc3[nH]c2c1 quantity_measured=AUC(0-inf) reported_measurement=547
compound="COc1cc(NC(C)CCCN)c2ncccc2c1 (stereo unspecified) [PRIMAQUINE]" quantity_measured=AUC(0-inf) reported_measurement=27.7
compound=CCCCN(CCCC)CCOc1ccc2c(=O)c3c(Cl)c(Cl)ccc3[nH]c2c1 quantity_measured=AUC(0-inf) reported_measurement=169
compound=CCN(CC)CCOc1ccc2c(=O)c3ccc(Cl)cc3[nH]c2c1 quantity_measured=AUC(0-inf) reported_measurement=1460

Moving on to the next compound.
Lookup: Let me know recorded AUC(0-inf) for `CCCN(CCC)CCOc1ccc2c(=O)c3c(F)cc(F)cc3[nH]c2c1` , thanks.
Found: 102

###

Test system: Plasmodium yoelii
TEST_DETAILS: Antimalarial activity against blood stage Plasmodium yoelii MR4 MRA-428 infected in CF1 mouse assessed as suppression of parasitemia administered once daily via oral gavage for 4 days starting from 24 hrs post-infection and measured post-last dose by Giemsa-staining based microscopic analysis
Type: functional
A collection of molecules and their measured ED50
Note: unit mg/kg.day is implicit; provide only the numeric part.

Lookup: Give the reported value of ED50 for this record: `CCN(CC)CCOc1ccc2c(=O)c3c(Cl)cc(Cl)cc3[nH]c2c1`
Found: 3.09

Lookup: State, in one line, measured ED50 of `CCN(CC)CCOc1ccc2c(=O)c3ccc(Cl)cc3[nH]c2c1`
Found: 48

###

TEST_DETAILS: Selectivity index, ratio of IC50 for human HepG2 cells to IC50 for chloroquine-sensitive Plasmodium falciparum D6 infected in human erythrocytes
Format: toxicity, cell-based
PROTOCOL_CONDITIONS: read-out: Ratio IC50
QUANTITY_MEASURED: selectivity ratio
The reply should be a number, written without any unit.

given_smiles=CC(C)(C)NCCCOc1ccc2c(=O)c3c(Cl)c(Cl)ccc3[nH]c2c1 reported_measurement=127

Lookup: Give the reported selectivity ratio for this compound. `CCCN(CCC)CCOc1ccc2[nH]c3cc(F)cc(OC)c3c(=O)c2c1`
Found: 1590

Lookup: Provide measured selectivity ratio value, entry: `CCCCNCCCOc1ccc2c(=O)c3cc(Cl)c(Cl)cc3[nH]c2c1`
Found: 2490

Lookup: Look up and state reported selectivity ratio for `CCN(CC)CCOc1ccc2c(=O)c3c(Cl)ccc(Cl)c3[nH]c2c1`
Found: 152

Lookup: Look up and state reported selectivity ratio for `CCN(CC)CCOc1ccc2c(=O)c3c(F)cc(F)cc3[nH]c2c1`
Found: 9950

Lookup: Give selectivity ratio for `CCN(CC)CCOc1ccc2c(=O)c3cc(Cl)cc(Cl)c3[nH]c2c1`
Found: 38

Lookup: Provide one value: measured selectivity ratio of `CCN(CC)CCCOc1ccc2c(=O)c3ccc(Cl)cc3[nH]c2c1`
Found: 72

###

TEST_DETAILS: Cmax in ICR mouse plasma at 80 mg/kg, po administered as single dose
Format: ADME, organism-based
Design: dose 80 mg/kg, route oral
PROTOCOL_CONDITIONS: ICR, plasma, read-out: Cmax
Quick rule for you: Cmax at 500 ng/mL or higher means fulfilled, lower means not fulfilled.

Observe how each entry below is paired with its result.
molecule=CCN(CC)CCOc1ccc2c(=O)c3ccc(Cl)cc3[nH]c2c1 label=fulfilled
molecule="COc1cc(NC(C)CCCN)c2ncccc2c1 (stereo not given) [PRIMAQUINE]" label=fulfilled
molecule=CCCN(CCC)CCCOc1ccc2c(=O)c3c(F)cc(F)cc3[nH]c2c1 label=fulfilled
molecule=CCCN(CCC)CCOc1ccc2c(=O)c3c(Cl)c(Cl)ccc3[nH]c2c1 label=fulfilled

Could you now look at the following molecule, please?
Lookup: Textbook exercise: given the entry `CCCCN(CCCC)CCOc1ccc2c(=O)c3c(Cl)c(Cl)ccc3[nH]c2c1` , state whether its Cmax is greater than or equal to 500 ng/mL.
Found: not fulfilled

###

Known Tmax of a selection of compounds
TEST_DETAILS: Tmax in ICR mouse plasma at 80 mg/kg, po administered as single dose
Assay type: ADME, organism-based
PROTOCOL_CONDITIONS: ICR, plasma, read-out: Tmax
Provide only the numeric value, understood in h.

Lookup: Return Tmax (reported value) for this compound: `CCN(CC)CCOc1ccc2c(=O)c3ccc(Cl)cc3[nH]c2c1`
Found: 2

Lookup: Give the reported value of Tmax for this record: `CCCCN(CCCC)CCOc1ccc2c(=O)c3c(Cl)c(Cl)ccc3[nH]c2c1`
Found: 2.75

Lookup: Input COc1cc(NC(C)CCCN)c2ncccc2c1 (stereo not given) , output reported Tmax.
Found: 0.5

Lookup: Quickly give me recorded Tmax for `CCCN(CCC)CCOc1ccc2c(=O)c3c(Cl)c(Cl)ccc3[nH]c2c1`
Found: 5.5

Lookup: Item `CCCN(CCC)CCCOc1ccc2c(=O)c3c(F)cc(F)cc3[nH]c2c1` : provide Tmax
Found: 7.78

###

TEST_DETAILS: Mean residence time in ICR mouse plasma at 80 mg/kg, po administered as single dose
Type: ADME, organism-based
QUANTITY_MEASURED: MRT (h)
Numbers only here, please. The scale is h.

These recorded examples may help you get a feel for the data.
molecule=CCCN(CCC)CCOc1ccc2c(=O)c3c(Cl)c(Cl)ccc3[nH]c2c1 quantity_measured=MRT reported_measurement=4.69
molecule="COc1cc(NC(C)CCCN)c2ncccc2c1 (stereo unspecified)" quantity_measured=MRT reported_measurement=2.3
molecule=CCCN(CCC)CCOc1ccc2c(=O)c3c(F)cc(F)cc3[nH]c2c1 quantity_measured=MRT reported_measurement=10.2
molecule=CCN(CC)CCOc1ccc2c(=O)c3ccc(Cl)cc3[nH]c2c1 quantity_measured=MRT reported_measurement=3.41
molecule=CCCN(CCC)CCCOc1ccc2c(=O)c3c(F)cc(F)cc3[nH]c2c1 quantity_measured=MRT reported_measurement=11.8

Kindly consider the entry below.
Lookup: Give recorded MRT. `CCCCN(CCCC)CCOc1ccc2c(=O)c3c(Cl)c(Cl)ccc3[nH]c2c1`
Found: 6.96

###

TEST_DETAILS: Apparent volume of distribution in ICR mouse plasma at 80 mg/kg, po administered as single dose
Type: ADME, organism-based
PROTOCOL_CONDITIONS: in vivo
Collected Vz values appear next to each entry.
# output: bare number, implied unit L/kg

Solved entries:
compound=CCCN(CCC)CCOc1ccc2c(=O)c3c(F)cc(F)cc3[nH]c2c1 reported_measurement=657.604
compound=CCCN(CCC)CCCOc1ccc2c(=O)c3c(F)cc(F)cc3[nH]c2c1 reported_measurement=175.302
compound=CCN(CC)CCOc1ccc2c(=O)c3ccc(Cl)cc3[nH]c2c1 reported_measurement=37.689

Lookup: Kindly indicate its recorded Vz. Item: `CCCN(CCC)CCOc1ccc2c(=O)c3c(Cl)c(Cl)ccc3[nH]c2c1`
Found: 58.684

Lookup: Query Vz for COc1cc(NC(C)CCCN)c2ncccc2c1 (stereo unspecified)
Found: 43.801

Lookup: Tell me measured Vz for `CCCCN(CCCC)CCOc1ccc2c(=O)c3c(Cl)c(Cl)ccc3[nH]c2c1` please.
Found: 223.865
